TARGET ENTITY: Corticotropin-releasing factor receptor 1 (Homo sapiens)
MEASURED QUANTITY: pKi
Reminder that pKi is minus the log10 of a molar concentration.

Query :: // returns reported pKi for input COCC(COC)Nc1nc(C)nc2c(-c3ccc(Cl)cc3Cl)c(C)nn12
Result :: 8.55

----------
TARGET ENTITY: Corticotropin-releasing factor receptor 1 (Homo sapiens)
Sequence (P34998 whole entry): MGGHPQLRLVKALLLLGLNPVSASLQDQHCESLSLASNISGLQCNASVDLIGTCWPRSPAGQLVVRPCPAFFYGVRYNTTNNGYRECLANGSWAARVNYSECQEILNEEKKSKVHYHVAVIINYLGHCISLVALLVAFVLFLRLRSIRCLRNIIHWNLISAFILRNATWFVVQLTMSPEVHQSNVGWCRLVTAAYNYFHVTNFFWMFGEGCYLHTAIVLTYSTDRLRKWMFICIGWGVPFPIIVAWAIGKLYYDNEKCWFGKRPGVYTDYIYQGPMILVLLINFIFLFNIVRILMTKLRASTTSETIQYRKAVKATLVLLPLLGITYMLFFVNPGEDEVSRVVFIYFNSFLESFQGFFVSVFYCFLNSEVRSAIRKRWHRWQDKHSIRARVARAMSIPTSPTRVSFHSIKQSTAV
MEASURED QUANTITY: Ki

Query :: GET /values?readout=Ki&system=Corticotropin-releasing factor receptor 1 (Homo sapiens)&item= H-DLTFHLLREMLEMAKAEQEAEQAALNRLLLEEA-NH2 [NSC_0]
Result :: > 1000 nM

Data origin: BindingDB's records for doi:10.1124/jpet.102.046128
